molecular target: UniProtKB P12931
Sequence (P12931 whole entry): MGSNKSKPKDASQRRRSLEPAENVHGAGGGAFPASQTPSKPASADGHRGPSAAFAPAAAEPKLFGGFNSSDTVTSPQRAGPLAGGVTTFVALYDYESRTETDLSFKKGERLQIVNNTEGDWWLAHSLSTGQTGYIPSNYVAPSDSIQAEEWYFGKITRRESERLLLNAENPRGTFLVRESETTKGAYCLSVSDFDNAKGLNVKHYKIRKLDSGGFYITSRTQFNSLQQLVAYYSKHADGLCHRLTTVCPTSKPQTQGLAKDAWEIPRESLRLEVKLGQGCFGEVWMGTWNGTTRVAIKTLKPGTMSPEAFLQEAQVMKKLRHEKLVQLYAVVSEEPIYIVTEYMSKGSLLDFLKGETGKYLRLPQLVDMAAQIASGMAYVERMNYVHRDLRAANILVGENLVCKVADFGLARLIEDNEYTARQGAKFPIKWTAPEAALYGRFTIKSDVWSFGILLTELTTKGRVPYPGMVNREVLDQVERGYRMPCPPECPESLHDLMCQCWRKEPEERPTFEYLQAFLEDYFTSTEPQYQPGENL
pIC50: −log10 of the molar value.

>  <given-smiles>
CCNCc1cncc(-c2cnc3[nH]nc(-c4nc5cc(N6CCN(C)CC6)ccc5[nH]4)c3c2)c1

>  <pIC50>
6.15

$$$$
>  <given-smiles>
COCc1cccc2[nH]c(-c3n[nH]c4ncc(-c5cc[nH]c5)cc34)nc12

>  <pIC50>
6.49

$$$$
>  <given-smiles>
COCc1cccc2[nH]c(-c3n[nH]c4ncc(-c5cncc(CN6CCOCC6)c5)cc34)nc12

>  <pIC50>
6.85

$$$$
>  <given-smiles>
COCc1cccc2[nH]c(-c3n[nH]c4ncc(-c5cncc(CNC6CCN(C)CC6)c5)cc34)nc12

>  <pIC50>
6.67

$$$$
>  <given-smiles>
CNCc1cncc(-c2cnc3[nH]nc(-c4nc5ccc(OC)cc5[nH]4)c3c2)c1

>  <pIC50>
7.78

$$$$
>  <given-smiles>
CCN(CC)c1ccc(NC(=O)c2cccc3[nH]c(-c4n[nH]c5ncc(-c6cncc7ccccc67)cc45)nc23)c(C)c1

>  <pIC50>
8.98

$$$$
>  <given-smiles>
FC(F)(F)Oc1ccc2[nH]c(-c3n[nH]c4ncc(-c5cccnc5)cc34)nc2c1

>  <pIC50>
6.12

$$$$
>  <given-smiles>
COCc1cccc2[nH]c(-c3n[nH]c4ncc(-c5ccncc5)cc34)nc12

>  <pIC50>
6.50

$$$$
>  <given-smiles>
O=C(NC1CC1)c1cccc2[nH]c(-c3n[nH]c4ncc(-c5cncc6ccccc56)cc34)nc12

>  <pIC50>
9.20

$$$$
>  <given-smiles>
COCc1cccc2[nH]c(-c3n[nH]c4ncc(-c5cncc(CN(C)C)c5)cc34)nc12

>  <pIC50>
6.85

$$$$
>  <given-smiles>
COc1ccc2nc(-c3n[nH]c4ncc(-c5cccnc5)cc34)[nH]c2c1

>  <pIC50>
7.25

$$$$
>  <given-smiles>
COCc1cccc2[nH]c(-c3n[nH]c4ncc(-c5cncc(OC)c5)cc34)nc12

>  <pIC50>
6.21

$$$$
>  <given-smiles>
CCNCc1cncc(-c2cnc3[nH]nc(-c4nc5c(COC)cccc5[nH]4)c3c2)c1

>  <pIC50>
6.45

$$$$
>  <given-smiles>
COCc1cccc2[nH]c(-c3n[nH]c4ncc(-c5cncc(CN)c5)cc34)nc12

>  <pIC50>
6.08

$$$$

====

Target: CDK1 (Homo sapiens, UniProt P06493)
Construct: purchased New England Biolabs, Beverly, Mass; 6020; host or cells: insect cells
Sequence (P06493 whole entry): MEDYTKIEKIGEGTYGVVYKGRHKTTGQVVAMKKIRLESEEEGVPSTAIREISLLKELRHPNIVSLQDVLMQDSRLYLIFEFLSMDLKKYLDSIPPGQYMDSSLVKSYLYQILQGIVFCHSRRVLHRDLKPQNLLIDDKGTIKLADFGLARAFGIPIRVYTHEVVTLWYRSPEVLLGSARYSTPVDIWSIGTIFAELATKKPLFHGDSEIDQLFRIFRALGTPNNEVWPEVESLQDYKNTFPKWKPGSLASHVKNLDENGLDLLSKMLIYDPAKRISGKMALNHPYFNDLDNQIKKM
Sequence (P14635 whole entry partner): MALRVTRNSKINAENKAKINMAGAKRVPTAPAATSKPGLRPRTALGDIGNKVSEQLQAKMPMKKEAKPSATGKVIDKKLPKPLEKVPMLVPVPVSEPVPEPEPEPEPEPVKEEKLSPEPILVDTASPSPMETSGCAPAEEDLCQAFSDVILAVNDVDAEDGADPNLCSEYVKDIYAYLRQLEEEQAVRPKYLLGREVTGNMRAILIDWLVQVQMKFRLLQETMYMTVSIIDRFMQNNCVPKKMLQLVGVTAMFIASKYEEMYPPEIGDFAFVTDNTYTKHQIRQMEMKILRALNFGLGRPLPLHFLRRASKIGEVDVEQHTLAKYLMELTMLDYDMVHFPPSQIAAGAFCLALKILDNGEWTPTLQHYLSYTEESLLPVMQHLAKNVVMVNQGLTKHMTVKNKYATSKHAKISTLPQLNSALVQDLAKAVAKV
Test: CDK-1 kinase screening assay (33P-ATP FlashPlate)
Format: biochemical
Details: human CDK1 with cyclin B; 10 μM ATP; 1 hr at 30° C
Protocol: A kinase reaction mixture was prepared containing 50 mM Tris-HCl pH=8, 10 mM MgCl2, 0.1 mM […], 1 mM DTT, 10 μM ATP, 0.025 μM biotinylated histone-H1 peptide substrate and 0.2 μCuries per well ^33P-γ-ATP (2000-3000 Ci/mmol). […] A maximum and minimum signal for the assay was determined on each plate. The percent inhibition of a test compound was calculated according to the formula: […]
pIC50: −log10 of the molar value.
Recorded pIC50 by entry

>  <given-smiles>
COCc1cccc2[nH]c(-c3n[nH]c4ncc(-c5ccc(N6CCN(C(=O)OC(C)(C)C)CC6)nc5)cc34)nc12

>  <assay-target>
CDK1 (Homo sapiens, UniProt P06493)

>  <reading-qualifier>
<

>  <pIC50>
5.00

$$$$
>  <given-smiles>
COCc1cccc2[nH]c(-c3n[nH]c4ncc(-c5cnccc5C)cc34)nc12

>  <assay-target>
CDK1 (Homo sapiens, UniProt P06493)

>  <reading-qualifier>
=

>  <pIC50>
7.18

$$$$
>  <given-smiles>
COCc1cccc2[nH]c(-c3n[nH]c4ncc(-c5ccc(N6CCOCC6)nc5)cc34)nc12

>  <assay-target>
CDK1 (Homo sapiens, UniProt P06493)

>  <reading-qualifier>
<

>  <pIC50>
4.00

$$$$
>  <given-smiles>
CCCCNCc1cncc(-c2cnc3[nH]nc(-c4nc5cc(OC)ccc5[nH]4)c3c2)c1

>  <assay-target>
CDK1 (Homo sapiens, UniProt P06493)

>  <reading-qualifier>
=

>  <pIC50>
9.10

$$$$

====

biological target: HER2 (Homo sapiens, UniProt P04626); construct: GST (Glutathione-S-Transferase) (N); HIS6 (N); thrombin cleavage site (N); assay: HER2 kinase screening assay (33P-ATP FlashPlate); details: GST-HIS6 HER-2 aa 679 to 1255; 10 μM ATP; 1 hr at 30° C
Sequence (P04626 679-1255): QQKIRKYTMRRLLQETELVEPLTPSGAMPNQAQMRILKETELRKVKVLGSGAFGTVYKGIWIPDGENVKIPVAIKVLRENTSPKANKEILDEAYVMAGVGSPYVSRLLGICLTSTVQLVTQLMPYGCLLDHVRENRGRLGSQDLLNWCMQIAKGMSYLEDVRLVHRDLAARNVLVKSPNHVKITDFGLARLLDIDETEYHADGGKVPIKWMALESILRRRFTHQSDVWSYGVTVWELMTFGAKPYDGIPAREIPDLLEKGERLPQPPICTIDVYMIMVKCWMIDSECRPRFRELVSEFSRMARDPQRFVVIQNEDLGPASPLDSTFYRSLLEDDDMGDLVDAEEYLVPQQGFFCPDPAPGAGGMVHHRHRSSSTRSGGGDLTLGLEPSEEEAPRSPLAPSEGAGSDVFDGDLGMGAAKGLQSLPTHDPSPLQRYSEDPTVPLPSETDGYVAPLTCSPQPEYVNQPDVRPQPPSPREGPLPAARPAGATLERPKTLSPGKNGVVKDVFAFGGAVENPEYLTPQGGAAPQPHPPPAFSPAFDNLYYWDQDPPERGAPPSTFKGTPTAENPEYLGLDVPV

>  <given-smiles>
COCc1cccc2[nH]c(-c3n[nH]c4ncc(-c5cncc(C=NO)c5)cc34)nc12

>  <assay-target>
HER2 (Homo sapiens, UniProt P04626)

>  <IC50>
> 100 µM

$$$$
>  <given-smiles>
CCN(CC)Cc1cccc2[nH]c(-c3n[nH]c4ncc(-c5cccnc5)cc34)nc12

>  <assay-target>
HER2 (Homo sapiens, UniProt P04626)

>  <IC50>
> 100 µM

$$$$
>  <given-smiles>
COCc1cccc2[nH]c(-c3n[nH]c4ncc(-c5cncc(CN6CCOCC6)c5C)cc34)nc12

>  <assay-target>
HER2 (Homo sapiens, UniProt P04626)

>  <IC50>
~100 µM

$$$$
>  <given-smiles>
COCc1cccc2[nH]c(-c3n[nH]c4ncc(-c5ccc(N6CCOCC6)nc5)cc34)nc12

>  <assay-target>
HER2 (Homo sapiens, UniProt P04626)

>  <IC50>
> 100 µM

$$$$

====

target: HER2 (Homo sapiens, UniProt P04626); construct: GST (Glutathione-S-Transferase) (N); HIS6 (N); thrombin cleavage site (N); assay: HER2 kinase screening assay (33P-ATP FlashPlate); conditions: GST-HIS6 HER-2 aa 679 to 1255; 10 μM ATP; 1 hr at 30° C;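 also: Biotin-poly(GT) 4:1 peptide captured on streptavidin FlashPlate, 33P transfer from γ-ATP read by scintillation counting, lower incorporation means inhibition, 1% DMSO final, 100 µL reaction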
Overview of reported IC50 across a group of compounds:

>  <compound>
COCc1cccc2[nH]c(-c3n[nH]c4ncc(-c5cncc(CNCCN(C)C)c5)cc34)nc12 [Cpd 76]

>  <IC50>
> 100 µM

$$$$
>  <compound>
COCc1cccc2[nH]c(-c3n[nH]c4ncc(-c5cncc(CNC6CCN(C)CC6)c5)cc34)nc12 [Cpd 80]

>  <IC50>
> 100 µM

$$$$
>  <compound>
COCc1cccc2[nH]c(-c3n[nH]c4ncc(-c5c[nH]c6ccccc56)cc34)nc12 [Cpd 39]

>  <IC50>
> 100 µM

$$$$
>  <compound>
CN1CCN(c2ccc3[nH]c(-c4n[nH]c5ncc(Br)cc45)nc3c2)CC1 [Cpd 30]

>  <IC50>
> 10 µM

$$$$
>  <compound>
CC(C)(C)NC(=O)c1cccc2[nH]c(-c3n[nH]c4ncc(-c5cncc6ccccc56)cc34)nc12 [Cpd 20]

>  <IC50>
> 10 µM

$$$$
>  <compound>
CC(C)NC(=O)c1cccc2[nH]c(-c3n[nH]c4ncc(-c5cncc6ccccc56)cc34)nc12 [Cpd 18]

>  <IC50>
> 10 µM

$$$$
>  <compound>
COCc1cccc2[nH]c(-c3n[nH]c4ncc(-c5cncc(CN(C)C)c5)cc34)nc12 [Cpd 55]

>  <IC50>
> 100 µM

$$$$
>  <compound>
CCOCCOCc1cccc2[nH]c(-c3n[nH]c4ncc(-c5cncc6ccccc56)cc34)nc12 [Cpd 16]

>  <IC50>
> 100 µM

$$$$

====

These molecules were tested on RET (Homo sapiens); IC50 is the recorded read-out.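 Also: biotinylated peptide substrate captured on streptavidin FlashPlate, 33P phosphate transfer read by scintillation counting, 1% DMSO, lower incorporation means inhibition, percent relative to per-plate maximum and minimum signals.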
Sequence (P07949 658-1114 limits assumed): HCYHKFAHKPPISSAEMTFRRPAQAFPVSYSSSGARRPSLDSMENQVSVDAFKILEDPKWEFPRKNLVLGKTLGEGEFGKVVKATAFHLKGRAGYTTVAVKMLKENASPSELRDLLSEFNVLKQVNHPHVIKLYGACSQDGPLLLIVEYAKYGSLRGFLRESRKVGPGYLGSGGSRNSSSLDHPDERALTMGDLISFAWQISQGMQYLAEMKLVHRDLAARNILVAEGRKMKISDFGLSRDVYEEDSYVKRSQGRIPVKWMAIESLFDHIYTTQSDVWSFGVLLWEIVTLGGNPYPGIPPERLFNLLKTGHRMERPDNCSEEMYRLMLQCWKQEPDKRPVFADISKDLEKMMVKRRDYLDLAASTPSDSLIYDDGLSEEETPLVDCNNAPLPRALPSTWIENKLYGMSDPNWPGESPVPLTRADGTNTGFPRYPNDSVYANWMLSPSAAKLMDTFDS
endpoint: IC50

>  <molecule>
CCN(CC)Cc1cccc2[nH]c(-c3n[nH]c4ncc(-c5cccnc5)cc34)nc12

>  <endpoint>
IC50

>  <measured-value>
~10 µM

$$$$
>  <molecule>
CN1CCC(NC(=O)c2cccc3[nH]c(-c4n[nH]c5ncc(-c6cncc7ccccc67)cc45)nc23)CC1

>  <endpoint>
IC50

>  <measured-value>
> 100 µM

$$$$
>  <molecule>
COCc1cccc2[nH]c(-c3n[nH]c4ncc(-c5cncc(CN)c5)cc34)nc12

>  <endpoint>
IC50

>  <measured-value>
> 10 µM

$$$$
>  <molecule>
O=C(NC1CCC(O)CC1)c1cccc2[nH]c(-c3n[nH]c4ncc(-c5cncc6ccccc56)cc34)nc12 (centres unmarked)

>  <endpoint>
IC50

>  <measured-value>
~1 µM

$$$$
>  <molecule>
CN(C)c1ccc(NC(=O)c2cccc3[nH]c(-c4n[nH]c5ncc(-c6cncc7ccccc67)cc45)nc23)cc1

>  <endpoint>
IC50

>  <measured-value>
~1 µM

$$$$
>  <molecule>
COCc1cccc2[nH]c(-c3n[nH]c4ncc(-c5ccc(N6CCNCC6)nc5)cc34)nc12

>  <endpoint>
IC50

>  <measured-value>
> 100 µM

$$$$
>  <molecule>
CCN(CC)Cc1cccc2[nH]c(-c3n[nH]c4ncc(Br)cc34)nc12

>  <endpoint>
IC50

>  <measured-value>
> 10 µM

$$$$
>  <molecule>
COCc1cccc2[nH]c(-c3n[nH]c4ncc(-c5cncc(C=O)c5)cc34)nc12

>  <endpoint>
IC50

>  <measured-value>
> 100 µM

$$$$
